B1: PKD2L1 (parent)
chain: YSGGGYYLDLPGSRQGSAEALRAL

Variants of: B1
Procedure summary: protein stability index of a GFP-peptide fusion (GPS, HEK-293T) (PSI 1-6); higher = more stable;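 note: lentivirally expressed fusions sorted by FACS into six bins by GFP to DsRed ratio, PSI derived from sequencing read proportions per bin multiplied by bin number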
Condition summary: c terminus: a fixed tail appended
Listed next: entries and their corresponding protein stability index.
Quantity kind: protein stability index

1) P11V 1.85
2) G4E 1.8
3) Y1F 2.68
4) E19N 1.77
5) L21R 1.25
6) S17M 2.3
7) G3A 1.58
8) R14E 1.75
9) D9Q 1.24
10) A20G 1.66
11) A20R 1.29
12) R14V 1.91
13) R14M 2.08
14) G12W 2.39
15) S17P 2.32
16) G5I 1.33
17) L24T 1.61
18) S17G 3.5
19) L10Y 1.81
20) D9G 3.74
21) A20Q 1.66
22) D9H 1.95
23) L8E 2.9
24) S13W 1.78
25) Y6R 2.64
26) A20K 1.74
27) G5V 2.1
28) R14S 1.57
29) A20P 2.62
30) L8V 2.45
31) A23C 1.59
32) G16A 1.94
33) G16Y 2.13
34) A18H 1.61
35) G5E 2.06
36) R22C 2.11
37) D9M 3.33
38) A18T 1.35
39) A18V 1.49
40) A20D 1.86
41) L8P 1.99
42) S13N 1.38
43) Y1D 4.08
44) G16W 2.5
45) A20H 1.25
46) S2G 1.45
